System: Salmonella TA100
Experimental details: Salmonella plate-incorporation mutagenicity assay, strain TA100
Type: cell-based
Assay setup: TA100 +S9, Test 1, 80 µg/plate; zero-dose 99/110/110
Quantity kind: log10 of Rev/plate (log10 of the value in rev/plate)

Molecule	log10 of Rev/plate
c1ccc2c(c1)ccc1ccc3ccccc3c12 [B[c]P, Benzo[c]phenanthrene]	2.55
O[C@@H]1c2ccccc2-c2c(ccc3ccccc23)[C@H]1O (racemic) [B[c]P 5,6-diol]	2.42
O[C@@H]1c2ccccc2-c2c(ccc3sccc23)[C@H]1O (racemic) [P[3,4-b]T 6,7-diol]	3.11
O[C@@H]1C=Cc2c(ccc3ccc4ccccc4c23)[C@H]1O (racemic) [B[c]P 3,4-diol]	2.00
O[C@@H]1C=Cc2c(ccc3ccc4sccc4c23)[C@H]1O (racemic) [P[3,4-b]T 8,9-diol]	2.93
c1ccc2c(c1)ccc1ccc3ccsc3c12 [P[4,3-b]T, Phenanthro[4,3-b]thiophene]	2.21
O[C@@H]1c2ccccc2-c2c(ccc3ccsc23)[C@H]1O (racemic) [P[4,3-b]T 6,7-diol]	2.14
O[C@@H]1C=Cc2c(ccc3ccc4ccsc4c23)[C@H]1O (racemic) [P[4,3-b]T 8,9-diol]	2.83

---

Measured Mutagenic potency, Revertants/µg ± S.E., TA100, listed per entry.
System: Salmonella TA100
Experimental details: Salmonella plate-incorporation mutagenicity assay, strain TA100
Type: cell-based
Assay setup: plate-incorporation, +S9
Quantity kind: Mutagenic potency, Revertants/µg ± S.E., TA100 (rev/µg)

Compound	Result
O[C@@H]1C=Cc2c(ccc3ccc4ccsc4c23)[C@H]1O (racemic) [P[4,3-b]T 8,9-diol]	274
O[C@@H]1c2ccccc2-c2c(ccc3ccsc23)[C@H]1O (racemic) [P[4,3-b]T 6,7-diol]	0.4
c1ccc2c(c1)ccc1ccc3sccc3c12 [P[3,4-b]T, Phenanthro[3,4,-b]thiophene]	550
O=S1(=O)C=Cc2c1ccc1ccc3ccccc3c21 [P[3,4-b]T sulfone, Phenanthro[3,4-b]thiophene sulfone]	914

---

Tested on: Salmonella TA100
Experimental details: Salmonella plate-incorporation mutagenicity assay, strain TA100
Format: cell-based
Assay setup: TA100 +S9, Test 1, 2 µg/plate; zero-dose 99/110/110
Quantity kind: Rev/plate

Compound	Quantity kind	Result
O[C@@H]1C=Cc2c(ccc3ccc4ccccc4c23)[C@H]1O (racemic) [B[c]P 3,4-diol]	Rev/plate	694 rev/plate
O[C@@H]1c2ccccc2-c2c(ccc3ccsc23)[C@H]1O (racemic) [P[4,3-b]T 6,7-diol]	Rev/plate	101 rev/plate
O[C@@H]1c2ccccc2-c2c(ccc3ccccc23)[C@H]1O (racemic) [B[c]P 5,6-diol]	Rev/plate	132 rev/plate
O[C@@H]1c2ccccc2-c2c(ccc3sccc23)[C@H]1O (racemic) [P[3,4-b]T 6,7-diol]	Rev/plate	280 rev/plate
c1ccc2c(c1)ccc1ccc3ccsc3c12 [P[4,3-b]T, Phenanthro[4,3-b]thiophene]	Rev/plate	172 rev/plate
c1ccc2c(c1)ccc1ccc3ccccc3c12 [B[c]P, Benzo[c]phenanthrene]	Rev/plate	251 rev/plate
O[C@@H]1C=Cc2c(ccc3ccc4ccsc4c23)[C@H]1O (racemic) [P[4,3-b]T 8,9-diol]	Rev/plate	660 rev/plate
O[C@@H]1C=Cc2c(ccc3ccc4sccc4c23)[C@H]1O (racemic) [P[3,4-b]T 8,9-diol]	Rev/plate	326 rev/plate

---

Below, each of the compounds is paired with its reported Rev/plate value.
Test system: Salmonella TA98
Experimental details: Salmonella plate-incorporation mutagenicity assay, strain TA98, with S9 mix
Assay type: cell-based
Assay setup: TA98 +S9, Test 1, 40 µg/plate; zero-dose 33/40/39
Quantity kind: Rev/plate (rev/plate)

Compound	Quantity kind	Result
O=S1(=O)C=Cc2c1ccc1ccc3ccccc3c21 [P[3,4-b]T sulfone, Phenanthro[3,4-b]thiophene sulfone]	Rev/plate	1124
O[C@@H]1C=Cc2c(ccc3ccc4ccccc4c23)[C@H]1O (racemic) [B[c]P 3,4-diol]	Rev/plate	303
c1ccc2c(c1)ccc1ccc3ccsc3c12 [P[4,3-b]T, Phenanthro[4,3-b]thiophene]	Rev/plate	158
O[C@@H]1c2ccccc2-c2c(ccc3ccccc23)[C@H]1O (racemic) [B[c]P 5,6-diol]	Rev/plate	34
